Values were extracted from ChEMBL document CHEMBL4368911.

Measurement Notes: Drug uptake in FVB/NJ mouse brain at 25 mg/kg, ip measured after 120 mins post dose by LC-MS/MS analysis
Format: ADME, organism-based
Settings: read-out: Drug uptake
Reported Endpoint: concentration at 2 h (ng/g)
Respond with the bare value in ng/g.

Return reported concentration at 2 h; argument: "COc1cc(CCc2cc(NS(=O)(=O)c3ccccn3)c3ncccc3c2)cc(OC)c1"
18900

----------
Measurement Notes: Drug uptake in FVB/NJ mouse brain at 12.5 mg/kg, ip measured after 120 mins post dose by LC-MS/MS analysis
Assay type: ADME, organism-based
Settings: read-out: Drug uptake
Reported Endpoint: concentration at 2 h (ng/g)
Respond with the bare value in ng/g.

Return reported concentration at 2 h; argument: "COc1cc(CCc2cc(NS(=O)(=O)c3ccccn3)c3ncccc3c2)cc(OC)c1"
6000
